// provenance: paper PMC6925144

Target Desc: NAD-dependent deacetylase Sirtuin 1 (human, UniProt Q96EB6)
Sequence (Q96EB6 2-747 limits assumed): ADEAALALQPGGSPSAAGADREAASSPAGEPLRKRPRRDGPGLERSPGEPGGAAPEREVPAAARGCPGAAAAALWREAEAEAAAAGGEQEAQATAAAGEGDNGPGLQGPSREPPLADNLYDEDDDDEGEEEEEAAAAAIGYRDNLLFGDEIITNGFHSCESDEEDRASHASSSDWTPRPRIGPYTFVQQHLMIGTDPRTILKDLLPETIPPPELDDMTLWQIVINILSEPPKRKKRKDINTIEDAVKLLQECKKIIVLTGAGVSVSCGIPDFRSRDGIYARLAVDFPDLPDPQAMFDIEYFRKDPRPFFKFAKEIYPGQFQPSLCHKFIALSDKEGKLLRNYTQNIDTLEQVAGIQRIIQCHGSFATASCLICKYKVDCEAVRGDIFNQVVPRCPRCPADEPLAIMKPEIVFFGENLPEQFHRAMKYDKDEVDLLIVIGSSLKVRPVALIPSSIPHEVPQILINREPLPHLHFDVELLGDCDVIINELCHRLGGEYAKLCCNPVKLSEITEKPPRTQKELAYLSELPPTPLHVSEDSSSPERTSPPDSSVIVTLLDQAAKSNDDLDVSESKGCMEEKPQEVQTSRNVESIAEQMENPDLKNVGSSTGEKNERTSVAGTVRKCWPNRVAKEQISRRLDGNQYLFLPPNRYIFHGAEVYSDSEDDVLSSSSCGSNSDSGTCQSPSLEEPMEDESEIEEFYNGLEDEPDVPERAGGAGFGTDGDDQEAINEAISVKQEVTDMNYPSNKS
Experiment Summary: primary screen, delta tm
Set-up: single well (n = 1, as 'the same TSA')
Conditions Used: 10 µM
The full ranking holds about 3,200 compounds; the median of “TSA(with NAD+) / Primary screening (TSA) / delta Tm (K)” is about -0.04, and the highest 2% start at about 0.37. The sample as a whole holds a higher share of the highest values than the screen did.
Listed here are compounds together with their documented TSA(with NAD+) / Primary screening (TSA) / delta Tm (K).
Field format: number, assumed K, no unit text.

>>> print(df.to_string())
                                   compound  unit_of_measurement  recorded_measurement
0  O=C(NCc1ccccc1O)c1ccc2c(c1)C(=O)c1ccccc1-2                    K                 -0.03

stdin: Give the measured TSA(with NAD+) / Primary screening (TSA) / delta Tm (K) of NS(=O)(=O)c1ccc(C(=O)Nc2ccc3c(c2)-c2ccccc2C3)cc1 .
stdout: 0.68

stdin: And for O=C(CSc1nnc(NCC2CCCO2)s1)Nc1nc(-c2cc(F)ccc2F)cs1 (stereo not shown) ?
stdout: 0.01

stdin: And for CN(c1ccccc1)S(=O)(=O)c1cccc(NCC(=O)Nc2ccc(Br)cc2)c1 ?
stdout: -0.01
